measurement-notes: chemical genetic growth profiling, strain panel (AID 1159580);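 further: tested at 20 µM; growth read once vehicle control cultures reached saturation at 30 °C; 1 = growth at the plate median or of vehicle wells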
assay-conditions: S. cerevisiae deletion strains, growth OD, locus YGL253W, strain hxk2, stronger effect = lower value
About 2,000 (36%) of roughly 5,500 compounds were called active. Roughly 18% stayed inconclusive and do not appear here. Some of the results follow.
Listing: normalized growth of selected compounds
metric-name: normalized growth

compound: COc1cc(OC)c2c(=O)c(-c3ccccc3)coc2c1
reported-value: 0.935 (inactive)
//
compound: CCCCC(=O)Oc1ccccc1C(=O)O
reported-value: 0.989 (inactive)
//
compound: Cc1cc(NC(=O)C2=C(O)c3ccccc3S(=O)(=O)N2C)no1
reported-value: 0.957 (inactive)
//
compound: CCCCNc1ccc(C(=O)OCCN(C)C)cc1
reported-value: 1.03 (inactive)
//
compound: C=CCCCCCCCCCCCC(O)CC(O)COC(C)=O (stereo not given) (tested in a mixture with another compound)
reported-value: 0.847 (active)
//
compound: NS(=O)(=O)c1cc2c(cc1Cl)NC(C(Cl)Cl)NS2(=O)=O (stereo not given)
reported-value: 0.976 (inactive)
//
compound: NC(CO)C(=O)NNCc1ccc(O)c(O)c1O (stereo not given)
reported-value: 0.958 (inactive)
//
compound: COc1ccc(-c2coc3cc(OC)cc(OC)c3c2=O)cc1
reported-value: 0.995 (inactive)
//
compound: COc1ccc(CCN2CCC(Nc3nc4ccccc4n3Cc3ccc(F)cc3)CC2)cc1
reported-value: 0.904 (active)
//
compound: Nc1ccn(C2O[C@H](CO)[C@@H](O)[C@@H]2O)c(=O)n1 (stereo not given in full)
reported-value: 1 (inactive)
//
compound: O=S1OCC2C(CO1)C1(Cl)C(Cl)=C(Cl)C2(Cl)C1(Cl)Cl (stereo not given)
reported-value: 0.987 (inactive)
//
compound: CCC(C)C(=O)O[C@H]1C[C@H](O)C=C2C=C[C@H](C)[C@H](CC[C@@H](O)C[C@@H](O)CC(=O)O)C21 (stereo not given in full)
reported-value: 1.02 (inactive)
//
compound: CCCCCCCCCCCCCCCC(=O)OC1C(SC)OC(C(NC(=O)C2CC(CCC)CN2C)C(C)Cl)C(O)C1O (stereo not given)
reported-value: 0.978 (inactive)
//
compound: OC(Cn1cncn1)(Cn1cncn1)c1ccc(F)cc1F
reported-value: 0.99 (inactive)
//
compound: C=C1CCC(OC(C)=O)/C(C)=C/C[C@@H]2[C@@H]1CC2(C)C (stereo not given in full)
reported-value: 1.01 (inactive)
//
compound: O=c1cc[nH]c(=S)[nH]1
reported-value: 1.03 (inactive)
//
compound: CC(C)COCC(CN(Cc1ccccc1)c1ccccc1)N1CCCC1 (stereo not given)
reported-value: 1.05 (inactive)
//
compound: CC(C)C(=O)Nc1ccc([N+](=O)[O-])c(C(F)(F)F)c1
reported-value: 1.02 (inactive)
//
compound: O=C1NC(=O)C(=O)C(=O)N1
reported-value: 0.993 (inactive)
//
compound: CCCC(=O)O[C@]1(C(=O)CO)CCC2[C@@H]3CCC4=CC(=O)CC[C@]4(C)C3[C@@H](O)C[C@@]21C (stereo not given in full)
reported-value: 1.01 (inactive)
//
compound: COc1c(OC)c2occc2c2oc(=O)ccc12
reported-value: 0.956 (inactive)
//
compound: CC[C@H](C)C(=O)O[C@H]1CCC=C2C=C[C@H](C)C(CCC3C[C@@H](O)CC(=O)O3)[C@H]21 (stereo not given in full)
reported-value: 1.01 (inactive)
//
compound: CCCCOC(=O)c1ccccc1C(=O)OCCCC
reported-value: 0.987 (inactive)
//
compound: CCC(C)(C)C(=O)O[C@H]1C[C@@H](C)C=C2C=C[C@H](C)[C@H](CC[C@@H]3C[C@@H](O)CC(=O)O3)[C@H]21
reported-value: 0.787 (active)
//
compound: COc1c2ccoc2c(OC)c2oc(=O)ccc12
reported-value: 0.959 (inactive)
//
compound: C[N+]1(C)C2CC(OC(=O)[C@@H](CO)c3ccccc3)CC1C1OC12 (stereo not given in full)
reported-value: 0.97 (inactive)
//
compound: Nc1ccc(N=Nc2ccccc2)c(N)n1
reported-value: 0.695 (active)
//
compound: O=C(O)CN1C(=O)c2cccc3cccc(c23)C1=O
reported-value: 0.984 (inactive)
//
compound: Cc1cccc(C)c1NC1=NCCCS1
reported-value: 1.01 (inactive)
//
compound: C=C1CCC(C2CC(=O)OC2=O)C(=O)CCC2C1CC2(C)C (stereo not given)
reported-value: 1.03 (inactive)
//
compound: CO/N=C(\C(=O)N[C@@H]1C(=O)N2C(C(=O)O)=C(COC(C)=O)CS[C@H]12)c1csc(N)n1
reported-value: 1 (inactive)
//
compound: CCCCN(CCCC)CCCOC(=O)c1ccc(N)cc1
reported-value: 0.991 (inactive)
//
compound: C=C1CCC2C(CC2(C)C)C(=O)CCC1O (stereo not given)
reported-value: 1.02 (inactive)
//
compound: CC(C)C(C)/C=C/C(C)[C@H]1CCC2C3=CCC4CC(=O)CC[C@]4(C)C3CC[C@@]21C (stereo not given in full)
reported-value: 1.01 (inactive)
//
compound: CC1C[C@H]2CC(=O)[C@H]3CCCN4CCC[C@H]2[C@]34C1 (stereo not given in full)
reported-value: 1 (inactive)
//
compound: Cc1ccc(Cl)c(Nc2ccccc2C(=O)O)c1Cl
reported-value: 0.81 (active)
//
compound: CC(=O)Oc1c(C)cccc1C(=O)O
reported-value: 1.01 (inactive)
//
compound: CO/N=C(\C(=O)NC1C(=O)N2C(C(=O)OC(C)OC(C)=O)=C(COC(N)=O)CSC12)c1ccco1 (stereo not given)
reported-value: 1 (inactive)
//
compound: Cc1cccc(Nc2ccccc2C(=O)O)c1C
reported-value: 0.897 (active)
//
compound: COc1cc2c(cc1OC)C1Cc3ccc(OC)c(OC)c3CN1CC2 (stereo not given)
reported-value: 0.97 (inactive)
//
compound: CC(=O)N[C@@H](CS)C(=O)O
reported-value: 1.02 (inactive)
//
compound: CC1(C)NC(=O)N(c2ccc([N+](=O)[O-])c(C(F)(F)F)c2)C1=O
reported-value: 0.985 (inactive)
//
compound: COc1cc2occ(-c3ccccc3)c(=O)c2c(OC)c1C
reported-value: 0.971 (inactive)
//
compound: Cc1c(Cl)cccc1Nc1ccccc1C(=O)O
reported-value: 0.706 (active)
//
compound: O=C(O)c1ccccc1-c1c2cc(Br)c(=O)cc-2oc2[c]([Hg])c(O)c(Br)cc12
reported-value: 1.02 (inactive)

----------
measurement-notes: chemical genetic growth profiling, strain panel (AID 1159580);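 further: tested at 20 µM; growth read once vehicle control cultures reached saturation at 30 °C; 1 = growth at the plate median or of vehicle wells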
assay-conditions: S. cerevisiae deletion strains, growth OD, locus YPL055C, strain LGE1
Screen size: about 5,500 compounds; about 2,000 (36%) were called active. Another 18% or so got no clear call; they are omitted. No stated cut-off is given here; in the data, active means normalized growth mostly below about 0.91 (no sharp cut-off); inconclusive means no clear call, values can overlap the other calls; inactive means mostly above about 0.92. Some of the results follow.
Classes used: active, inactive

compound: COc1ccc([C@H]2Oc3cc(OC)cc(OC)c3C[C@H]2O)cc1
assigned-category: inactive

compound: CC(C)NCC(O)c1cc(O)cc(O)c1 (configuration not stated)
assigned-category: inactive

compound: Cc1cc(-c2ccccc2)nnc1NCCN1CCOCC1
assigned-category: inactive

compound: CC(C)COCC(CN(Cc1ccccc1)c1ccccc1)N1CCCC1 (configuration not stated)
assigned-category: active

compound: O=C(O)Cc1ccc(O)c(O)c1
assigned-category: inactive

compound: N#Cc1c(F)cccc1Oc1ccc(F)cc1
assigned-category: inactive

compound: c1ccc(-c2cc3c(nn2)CCc2nonc2-3)cc1
assigned-category: inactive

----------
measurement-notes: chemical genetic growth profiling, strain panel (AID 1159580);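 further: tested at 20 µM; growth read once vehicle control cultures reached saturation at 30 °C; 1 = growth at the plate median or of vehicle wells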
assay-conditions: S. cerevisiae deletion strains, growth OD, locus YOR061W, strain CKA2, stronger effect = lower value
In all, about 5,500 compounds went through this assay and about 2,000 (36%) were called active. Not shown: some 18% with an inconclusive outcome. Some of the results follow.

compound: CCN(CC)CCOC(=O)c1ccc(N)cc1
normalized growth: 1.01
//
compound: CCC(C)c1cnc(CC(C)C)c(=O)n1O (configuration not stated)
normalized growth: 0.997
//
compound: Cn1c(=O)c2[nH]cnc2n(C)c1=O
normalized growth: 0.988
//
compound: CCCCNc1ccc(C(=O)OCCN(C)C)cc1
normalized growth: 1
//
compound: CCCCOC(=O)c1ccc(N)cc1
normalized growth: 0.986
//
compound: O=[N+]([O-])c1ccc(Sc2ssc(=S)c2-c2ccccc2)nc1
normalized growth: 0.664
//
compound: CCCCOC(=O)c1ccccc1C(=O)OCc1ccccc1
normalized growth: 0.984

----------
Listing: normalized growth of selected molecules
measurement-notes: chemical genetic growth profiling, strain panel (AID 1159580);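 further: tested at 20 µM; growth read once vehicle control cultures reached saturation at 30 °C; 1 = growth at the plate median or of vehicle wells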
assay-conditions: S. cerevisiae deletion strains, growth OD, locus YDR101C, strain arx1, stronger effect = lower value
The campaign covered roughly 5,500 compounds. About 2,000 (36%) were called active. About 18% were inconclusive and are not listed. The list shows a part of the results.

molecule: COC(=O)C[C@H]1C(C)(C)C(=O)[C@@H]2CC3=C(CC[C@]4(C)C3=CC(=O)O[C@H]4c3ccoc3)[C@@]1(C)C2=O
normalized growth: 1.01
--
molecule: CCCNC1CCc2nc(N)sc2C1 (stereo not given)
normalized growth: 0.988
--
molecule: CO/N=C(\C(=O)N[C@@H]1C(=O)N2C(C(=O)O)=C(COC(C)=O)CS[C@H]12)c1csc(N)n1
normalized growth: 0.975
--
molecule: CO/N=C(\C(=O)NC1C(=O)N2C(C(=O)O)=C(COC(N)=O)CSC12)c1ccco1 (stereo not given)
normalized growth: 0.0636
--
molecule: CO/N=C(\C(=O)N[C@@H]1C(=O)N2C(C(=O)O)=C(CSc3nc(=O)c(O)nn3C)CS[C@H]12)c1csc(N)n1
normalized growth: 1.02
